- assayTarget: UniProt:Q99572
- runDescription: Antagonist activity at human P2X7 receptor expressed in HEK293 cells assessed as inhibition of BzATP-induced fluorescent ethidium accumulation
Rule: IC50 below 1 µM gives satisfied. Equal to or above 1 µM gives not satisfied.

Q) Check if IC50 falls below 1 µM for CCc1c2[n+](cc3c(OCc4cccc(Cl)c4)c(OC)ccc13)CCc1cc(OC)c(OC)cc1-2 .
A) not satisfied

Q) Check if IC50 falls below 1 µM for COc1cc2c(cc1OC)-c1c(CC3CCCCC3)c3ccc(OC)c(OC)c3c[n+]1CC2 .
A) not satisfied

Q) Check if IC50 falls below 1 µM for CCc1c2[n+](cc3c(OCc4cc(C)ccc4C)c(OC)ccc13)CCc1cc(OC)c(OC)cc1-2 .
A) not satisfied

Q) Check if IC50 falls below 1 µM for CC[C@@H]1c2ccc(OC)c(OC)c2CN2CCc3cc4c(cc3[C@H]12)OCO4 (racemic) .
A) satisfied

Q) Check if IC50 falls below 1 µM for CCc1c2[n+](cc3c(OCc4ccc(Br)cc4)c(OC)ccc13)CCc1cc(OC)c(OC)cc1-2 .
A) not satisfied

Q) Check if IC50 falls below 1 µM for CCc1c2[n+](cc3c(OCc4cc(OC)c(OC)cc4[N+](=O)[O-])c(OC)ccc13)CCc1cc(OC)c(OC)cc1-2 .
A) satisfied

---

- assayTarget: P2X purinoceptor 7 (Homo sapiens, UniProt Q99572)
- Sequence (Q99572 whole entry): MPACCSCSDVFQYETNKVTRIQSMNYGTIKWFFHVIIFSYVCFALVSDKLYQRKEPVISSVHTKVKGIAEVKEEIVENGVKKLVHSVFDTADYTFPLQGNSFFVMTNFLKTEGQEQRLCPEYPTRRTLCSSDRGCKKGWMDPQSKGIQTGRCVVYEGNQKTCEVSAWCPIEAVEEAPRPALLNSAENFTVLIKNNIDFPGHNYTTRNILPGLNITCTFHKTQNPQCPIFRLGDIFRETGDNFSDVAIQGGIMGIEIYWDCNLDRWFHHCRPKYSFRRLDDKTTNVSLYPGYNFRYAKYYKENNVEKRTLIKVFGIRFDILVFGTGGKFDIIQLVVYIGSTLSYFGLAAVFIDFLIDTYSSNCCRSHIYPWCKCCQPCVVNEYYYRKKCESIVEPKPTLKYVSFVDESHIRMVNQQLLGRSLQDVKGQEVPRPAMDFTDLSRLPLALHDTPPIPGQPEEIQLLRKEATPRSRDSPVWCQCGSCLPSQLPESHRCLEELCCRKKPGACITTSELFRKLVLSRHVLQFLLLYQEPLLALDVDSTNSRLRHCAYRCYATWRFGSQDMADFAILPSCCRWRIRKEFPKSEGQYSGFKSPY
- runDescription: Antagonist activity at human P2X7 receptor expressed in HEK293 cells assessed as inhibition of BzATP-induced fluorescent ethidium accumulation
measurementName: pIC50
Recall that pIC50 is obtained by taking minus log10 of the concentration measured in molar.

The molecule CCc1c2[n+](cc3c(OCc4ccccc4C(F)(F)F)c(OC)ccc13)CCc1cc(OC)c(OC)cc1-2 showed pIC50 equal to 5.59

The molecule CCc1c2[n+](cc3c(OCc4cc([N+](=O)[O-])ccc4OC)c(OC)ccc13)CCc1cc(OC)c(OC)cc1-2 showed pIC50 equal to 6.38

The molecule CCc1c2[n+](cc3c(OC)c(OC)ccc13)CCc1cc3c(cc1-2)OCO3 showed pIC50 equal to 6.46

The molecule COc1ccc2c(Cc3c(F)cccc3Cl)c3[n+](cc2c1OC)CCc1cc2c(cc1-3)OCO2 showed pIC50 equal to 6.40

The molecule CCCc1c2[n+](cc3c(OC)c(OC)ccc13)CCc1cc(OC)c(OC)cc1-2 showed pIC50 equal to 6.30

The molecule COc1cc(Cc2c3[n+](cc4c(OC)c(OC)ccc24)CCc2cc4c(cc2-3)OCO4)cc(OC)c1 showed pIC50 equal to 6.59

The molecule C=CCc1c2[n+](cc3c(OC)c(OC)ccc13)CCc1cc3c(cc1-2)OCO3 showed pIC50 equal to 6.36

The molecule CCc1c2[n+](cc3c(OCc4ccc(C(C)(C)C)cc4)c(OC)ccc13)CCc1cc(OC)c(OC)cc1-2 showed pIC50 equal to 5.90

The molecule CCc1c2[n+](cc3c(OCc4ccccc4C)c(OC)ccc13)CCc1cc(OC)c(OC)cc1-2 showed pIC50 equal to 5.30

The molecule CCc1c2[n+](cc3c(OCc4ccc(F)cc4C(F)(F)F)c(OC)ccc13)CCc1cc(OC)c(OC)cc1-2 showed pIC50 equal to 6.09

The molecule CCc1c2[n+](cc3c(OCc4cccc([N+](=O)[O-])c4C)c(OC)ccc13)CCc1cc(OC)c(OC)cc1-2 showed pIC50 equal to 5.27

The molecule CCc1c2[n+](cc3c(OCc4ccc(Cl)nc4)c(OC)ccc13)CCc1cc(OC)c(OC)cc1-2 showed pIC50 equal to 5.36

The molecule CN([C@@H](Cc1ccc(OS(=O)(=O)c2cccc3cnccc23)cc1)C(=O)N1CCN(c2ccccc2)CC1)S(=O)(=O)c1cccc2cnccc12 showed pIC50 equal to 6.47

The molecule CCc1c2[n+](cc3c(OCc4ccc(OCc5ccccc5)cc4)c(OC)ccc13)CCc1cc(OC)c(OC)cc1-2 showed pIC50 equal to 5.55

The molecule CCc1c2[n+](cc3c(OCc4ccc(-c5ccccc5)cc4)c(OC)ccc13)CCc1cc(OC)c(OC)cc1-2 showed pIC50 equal to 5.49

The molecule CCc1c2[n+](cc3c(OCc4cc(C)ccc4[N+](=O)[O-])c(OC)ccc13)CCc1cc(OC)c(OC)cc1-2 showed pIC50 equal to 6.14

The molecule CCCC(I)c1c2[n+](cc3c(OC)c(OC)ccc13)CCc1cc3c(cc1-2)OCO3 (configuration not stated) showed pIC50 equal to 6.38
